Values from ChEMBL document CHEMBL1130753

biological target: UniProt P06239; assay: Compound was tested for its antagonistic activity at 100 uM concentration against SH2 domain of LCK protein.; assay type: functional
Sequence (P06239 2-509 limits assumed): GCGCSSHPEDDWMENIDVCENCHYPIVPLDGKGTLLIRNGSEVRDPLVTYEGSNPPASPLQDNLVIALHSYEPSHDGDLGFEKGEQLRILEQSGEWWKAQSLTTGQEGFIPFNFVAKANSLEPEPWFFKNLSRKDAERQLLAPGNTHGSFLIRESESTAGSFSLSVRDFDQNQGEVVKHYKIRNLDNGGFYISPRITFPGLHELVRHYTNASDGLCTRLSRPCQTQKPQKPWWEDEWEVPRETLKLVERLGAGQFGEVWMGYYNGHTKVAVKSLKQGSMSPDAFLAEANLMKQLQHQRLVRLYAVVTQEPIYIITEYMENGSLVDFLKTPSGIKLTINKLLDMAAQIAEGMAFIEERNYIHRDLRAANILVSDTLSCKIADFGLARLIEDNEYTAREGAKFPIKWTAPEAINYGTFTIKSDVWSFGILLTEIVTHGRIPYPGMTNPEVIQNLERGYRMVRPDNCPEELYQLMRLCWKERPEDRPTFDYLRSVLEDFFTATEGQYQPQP
Where a SMILES comes first, the peptide text is derived from it. [ ]: non-standard residue; d: D form. The star is where a group is joined. Gly(N-Bn(4-CH2PO3H2)) = O=C(O)CNCc1ccc(CP(=O)(O)O)cc1; N(3-phenylpropyl)Gly = O=C(O)CNCCCc1ccccc1; Hexanoyl = CCCCCC(=O)*; Nleu = CC(C)CNCC(=O)O
TEST READOUT: inhibition (%)

[I] CCCCCC(=O)N(CC(=O)N(CCCc1ccccc1)CC(=O)N(CCCc1ccccc1)CC(=O)N(CC(N)=O)CC(C)C)Cc1ccc(CP(=O)(O)O)cc1 (Hexanoyl-[Gly(N-Bn(4-CH2PO3H2))][N(3-phenylpropyl)Gly][N(3-phenylpropyl)Gly][Nleu]-NH2)
[II] CCCCCC(=O)N(CC(=O)N(CCCc1ccccc1)CC(=O)N(CC(=O)N(CC(N)=O)CC(C)C)CC(C)C)Cc1ccc(CP(=O)(O)O)cc1 (Hexanoyl-[Gly(N-Bn(4-CH2PO3H2))][N(3-phenylpropyl)Gly][Nleu][Nleu]-NH2)
Select one: I or II . Criterion: greater recorded inhibition. Pick one; state its label. II
